Below, each entry is listed alongside its reported growth inhibition IC50 (potency), SKBR3 cells.
- Assay target: HER2 expressed on the surface of cells (human, UniProt P04626 23-1255)
- Assay explanation: cell-based or functional assay
Answer format: numeric, nM implied, no suffix.

// known answers, use as guide
Variant 12471 (antibody, human IgG1, kappa, name in Kabat numbering, V domains shown, Kabat numbering; also called v12471; FSA version of v9996) VH: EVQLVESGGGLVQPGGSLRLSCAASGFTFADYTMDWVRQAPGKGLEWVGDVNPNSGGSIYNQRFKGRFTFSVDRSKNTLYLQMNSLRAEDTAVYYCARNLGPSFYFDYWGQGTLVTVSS VL: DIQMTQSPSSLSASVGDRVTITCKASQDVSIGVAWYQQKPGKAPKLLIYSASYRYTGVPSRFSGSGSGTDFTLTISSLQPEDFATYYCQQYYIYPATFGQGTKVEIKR
0.12
Variant 14020 (antibody, name in Kabat numbering, V domains shown, also called v14020) VH: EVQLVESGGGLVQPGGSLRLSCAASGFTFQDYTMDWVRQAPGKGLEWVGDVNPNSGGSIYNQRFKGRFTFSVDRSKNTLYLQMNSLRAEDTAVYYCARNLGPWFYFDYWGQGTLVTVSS VL: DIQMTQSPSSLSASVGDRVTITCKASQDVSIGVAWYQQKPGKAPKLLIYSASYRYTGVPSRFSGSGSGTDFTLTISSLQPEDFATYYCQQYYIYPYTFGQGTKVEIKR
0.17
Variant 14021 (antibody, name in Kabat numbering, V domains shown, also called v14021) VH: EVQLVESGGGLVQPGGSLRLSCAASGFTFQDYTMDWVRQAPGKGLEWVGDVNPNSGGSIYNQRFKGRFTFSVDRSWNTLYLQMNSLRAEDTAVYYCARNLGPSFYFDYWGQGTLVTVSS VL: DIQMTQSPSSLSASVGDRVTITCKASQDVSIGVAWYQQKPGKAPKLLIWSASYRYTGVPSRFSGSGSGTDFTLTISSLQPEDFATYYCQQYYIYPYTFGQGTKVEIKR
0.32
Variant 14023 (antibody, name in Kabat numbering, V domains shown, also called v14023) VH: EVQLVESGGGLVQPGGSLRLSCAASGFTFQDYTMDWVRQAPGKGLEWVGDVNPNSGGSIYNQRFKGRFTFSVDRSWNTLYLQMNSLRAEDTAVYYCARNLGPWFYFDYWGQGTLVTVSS VL: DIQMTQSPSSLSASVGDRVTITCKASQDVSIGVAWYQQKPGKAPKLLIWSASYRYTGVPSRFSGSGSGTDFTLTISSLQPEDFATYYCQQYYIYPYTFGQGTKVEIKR
0.34

Tell us which growth inhibition IC50 (potency), SKBR3 cells value is on record for Variant 14022 (antibody, name in Kabat numbering, V domains shown, also called v14022) VH: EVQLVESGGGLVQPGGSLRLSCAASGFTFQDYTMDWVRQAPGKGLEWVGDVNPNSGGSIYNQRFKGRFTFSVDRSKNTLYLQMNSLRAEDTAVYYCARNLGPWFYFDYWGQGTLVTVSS VL: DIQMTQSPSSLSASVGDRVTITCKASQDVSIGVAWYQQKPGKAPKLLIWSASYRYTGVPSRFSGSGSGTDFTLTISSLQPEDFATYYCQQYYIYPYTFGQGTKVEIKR
0.41

Tell us which growth inhibition IC50 (potency), SKBR3 cells value is on record for Variant 14018 (antibody, name in Kabat numbering, V domains shown, also called v14018) VH: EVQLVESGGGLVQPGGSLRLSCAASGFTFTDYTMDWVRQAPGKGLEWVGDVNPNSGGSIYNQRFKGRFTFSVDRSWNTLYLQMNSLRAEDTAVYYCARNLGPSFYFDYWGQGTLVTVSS VL: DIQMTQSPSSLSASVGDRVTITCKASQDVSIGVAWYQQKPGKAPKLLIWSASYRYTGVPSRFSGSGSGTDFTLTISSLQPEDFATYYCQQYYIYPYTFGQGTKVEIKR
0.28

Tell us which growth inhibition IC50 (potency), SKBR3 cells value is on record for Variant 14019 (antibody, name in Kabat numbering, V domains shown, also called v14019) VH: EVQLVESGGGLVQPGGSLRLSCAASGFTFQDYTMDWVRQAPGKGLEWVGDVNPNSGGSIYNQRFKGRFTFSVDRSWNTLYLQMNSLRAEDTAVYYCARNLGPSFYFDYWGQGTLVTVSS VL: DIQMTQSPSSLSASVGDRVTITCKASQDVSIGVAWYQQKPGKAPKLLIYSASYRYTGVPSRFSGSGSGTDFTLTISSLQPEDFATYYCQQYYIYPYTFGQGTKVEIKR
0.25
